Values from ChEMBL document CHEMBL4613212

procedure.summary: Selectivity index, ratio of IC50 for African green monkey Vero cells to MIC for antitubercular activity against Mycobacterium tuberculosis H37Rv
Assay type: toxicity
particulars: Vero cells, read-out: Selectivity Index
Property: selectivity ratio; scope: individual compounds
The answer should be a number; do not append a unit.

* Clc1nc(-c2ccco2)c2ncn(Cc3ccccc3)c2n1 | 10.6

Input line: Quick one: selectivity ratio for c1ccc(Cn2cnc3c(-c4ccco4)ncnc32)cc1 [9-BENZYL-6-(FURAN-2-YL)-9H-PURINE] ?
Output line: 2.7

* * *

procedure.summary: Cytotoxicity against LPS-induced human monocytes assessed as cell viability at 25 uM by tryphan blue staining based assay relative to control
Design: species or system Monocyte
particulars: read-out: Activity
experimental.readout: viability at 25 µM (%)
Expressed in %, but write only the number.

* O=C1c2ccccc2C(=O)N1c1ccc(F)c(F)c1 | 88

Please examine the following record next.
Input line: Quick one: viability at 25 µM for CCC1(N2C(=O)c3ccccc3C2=O)C(=O)NC(=O)N(c2ccccc2)C1=O (configuration not stated) ?
Output line: 73

* * *

procedure.summary: Inhibition of Mycobacterium smegmatis ATCC 607 dihydrofolic reductase
Set-up: species or system Mycolicibacterium smegmatis
experimental.readout: Ki (nM)
Expressed in nM, but write only the number.

Input line: Quick one: Ki for `Nc1nc(N)c2nc(Cc3ccccc3)cnc2n1` ?
Output line: 0.9

Input line: Quick one: Ki for `CCCCCc1cnc2nc(N)nc(N)c2n1` ?
Output line: 1.2

Input line: Quick one: Ki for `Cc1cnc2nc(N)nc(N)c2n1` ?
Output line: 5100

Input line: Quick one: Ki for `COc1cc(Cc2cnc(N)nc2N)cc(OC)c1OC` ?
Output line: 70

Input line: Quick one: Ki for `Nc1nc(N)c2nc(CNc3ccc(C(=O)N[C@@H](CCC(=O)O)C(=O)O)cc3)cnc2n1` ?
Output line: 0.18

Input line: Quick one: Ki for `COc1cc(Cc2cnc3nc(N)nc(N)c3n2)cc(OC)c1OC` ?
Output line: 5

* * *

Test system: Mycobacterium leprae
procedure.summary: Inhibition of PGL1 synthesis in Mycobacterium leprae infected Swiss Webster mouse macrophages assessed as decrease in [U-14C]PA incorporation at 2 uM preincubated for 4 days post infection followed by [U-14C]PA addition and measured after 7 days by liquid scintillation counter analysis relative to control
Format: functional
experimental.readout: inhibition at 2 µM (%)
Expressed in %, but write only the number.

# example entries with known answers
- CO[C@H]1/C=C/O[C@@]2(C)Oc3c(C)c(O)c4c(O)c(c(/C=N/N5CCN(C)CC5)c(O)c4c3C2=O)NC(=O)/C(C)=C\C=C\[C@H](C)[C@H](O)[C@@H](C)[C@@H](O)[C@@H](C)[C@H](OC(C)=O)[C@@H]1C [RIFAMPIN]: 86
- CO[C@H]1/C=C/O[C@@]2(C)Oc3c(C)c(O)c4c(c3C2=O)C2=NC3(CCN(CC(C)C)CC3)NC2=C(NC(=O)/C(C)=C\C=C\[C@H](C)[C@H](O)[C@@H](C)[C@@H](O)[C@@H](C)[C@H](OC(C)=O)[C@@H]1C)C4=O [RIFABUTIN]: 96
- CCc1cc(C(N)=S)ccn1 [ETHIONAMIDE]: 77
- Nc1ccc(S(=O)(=O)c2ccc(N)cc2)cc1 [DAPSONE]: 92
- CCN(CC)CCC/N=c1/cc2n(-c3ccc(Cl)cc3)c3ccccc3nc-2cc1Nc1ccc(Cl)cc1: 90
- CC(C)/N=c1\cc2n(-c3ccc(Cl)cc3)c3ccccc3nc-2cc1Nc1ccc(Cl)cc1 [CLOFAZIMINE]: 94

Please examine the following record next.
Input line: Quick one: inhibition at 2 µM for `Clc1ccc(Nc2cc3nc4ccccc4n(-c4ccc(Cl)cc4)c-3c/c2=N/CCCN2CCCC2)cc1` ?
Output line: 98

* * *

Test system: Mycobacterium leprae
procedure.summary: Anti-leprotic activity against rifampicin-susceptible Mycobacterium leprae subcultures at 4 weeks assessed as [3H]thymidine uptake per 5 times 10^7 cells at 0.1 mg/L incubated for 24 hrs (reference value: 1.41 +/- 0.20 pmol)
Assay type: functional
experimental.readout: Activity

- CCC(C)N1CCN(c2cc(O)c3nc4c5c6c7c(C)c(O)c5c(=O)c(c-4oc3c2)NC(=O)/C(C)=C\C=C\[C@H](C)[C@H](O)[C@@H](C)[C@@H](O)[C@@H](C)[C@H](OC(C)=O)[C@H](C)[C@@H](OC)/C=C/O[C@@](C)(O7)C6=O)CC1 (stereo in doubt; form 1): 0 pmol

Input line: Request: Activity, test system Mycobacterium leprae, entry CO[C@H]1/C=C/O[C@@]2(C)Oc3c(C)c(O)c4c(c3C2=O)C2=NC3(CCN(CC(C)C)CC3)NC2=C(NC(=O)/C(C)=C\C=C\[C@H](C)[C@H](O)[C@@H](C)[C@@H](O)[C@@H](C)[C@H](OC(C)=O)[C@@H]1C)C4=O [RIFABUTIN]
Output line: 0 pmol

Input line: Request: Activity, test system Mycobacterium leprae, entry CCC(C)N1CCN(c2cc(O)c3nc4c5c6c7c(C)c(O)c5c(=O)c(c-4oc3c2)NC(=O)/C(C)=C\C=C\[C@H](C)[C@H](O)[C@@H](C)[C@@H](O)[C@@H](C)[C@H](OC(C)=O)[C@H](C)[C@@H](OC)/C=C/O[C@@](C)(O7)C6=O)CC1 (stereo in doubt; form 2)
Output line: 0.76 pmol

Input line: Request: Activity, test system Mycobacterium leprae, entry CO[C@H]1/C=C/O[C@@]2(C)Oc3c(C)c(O)c4c(=O)c(c5oc6cc(N7CCN(CC(C)C)CC7)cc(O)c6nc-5c4c3C2=O)NC(=O)/C(C)=C\C=C\[C@H](C)[C@H](O)[C@@H](C)[C@@H](O)[C@@H](C)[C@H](OC(C)=O)[C@@H]1C [RIFALAZIL]
Output line: 0 pmol

Input line: Request: Activity, test system Mycobacterium leprae, entry `CCCN1CCN(c2cc(O)c3nc4c5c6c7c(C)c(O)c5c(=O)c(c-4oc3c2)NC(=O)/C(C)=C\C=C\[C@H](C)[C@H](O)[C@@H](C)[C@@H](O)[C@@H](C)[C@H](OC(C)=O)[C@H](C)[C@@H](OC)/C=C/O[C@@](C)(O7)C6=O)CC1`
Output line: 0 pmol

* * *

System: Listeria monocytogenes
procedure.summary: Antimicrobial activity against Listeria monocytogenes ATCC 1911 by broth microdilution assay
Assay type: functional
Property: MIC; scope: individual molecules
Expressed in µg/mL, but write only the number.

# example entries with known answers
- CN(C)c1ccc(/C=N/NC(=S)Nc2ccc(C(F)(F)F)cc2)cc1: 400
- O=[N+]([O-])c1ccc(/C=N/NC(=S)Nc2ccc(C(F)(F)F)cc2)cc1: 400
- Cc1ccc(/C=N/NC(=S)Nc2ccc(C(F)(F)F)cc2)cc1: 800
- FC(F)(F)c1ccc(NC(=S)N/N=C/c2ccc(Br)cc2)cc1: 400
- Oc1ccc(/C=N/NC(=S)Nc2ccc(C(F)(F)F)cc2)cc1: 400
- FC(F)(F)c1ccc(NC(=S)N/N=C/c2ccc(Cl)cc2)cc1: 800
- FC(F)(F)c1ccc(/C=N/NC(=S)Nc2ccc(C(F)(F)F)cc2)cc1: 800
- FC(F)(F)c1ccc(NC(=S)N/N=C/c2ccccc2)cc1: 400

Input line: Quick one: MIC for O=C(N[C@H](CO)[C@H](O)c1ccc([N+](=O)[O-])cc1)C(Cl)Cl [CHLORAMPHENICOL] ?
Output line: 100

Input line: Quick one: MIC for `CC(C)c1ccc(/C=N/NC(=S)Nc2ccc(C(F)(F)F)cc2)cc1` ?
Output line: 400

Input line: Quick one: MIC for `N#Cc1ccc(/C=N/NC(=S)Nc2ccc(C(F)(F)F)cc2)cc1` ?
Output line: 400

Input line: Quick one: MIC for `COc1ccc(/C=N/NC(=S)Nc2ccc(C(F)(F)F)cc2)cc1` ?
Output line: 800

Input line: Quick one: MIC for `Fc1ccc(/C=N/NC(=S)Nc2ccc(C(F)(F)F)cc2)cc1` ?
Output line: 1600

* * *

Test system: Mycobacterium leprae
procedure.summary: Inhibition of PGL1 synthesis in Mycobacterium leprae infected Swiss Webster mouse macrophages assessed as decrease in [U-14C]PA incorporation at 0.2 uM preincubated for 4 days post infection followed by [U-14C]PA addition and measured after 7 days by liquid scintillation counter analysis relative to control
Format: functional
experimental.readout: inhibition at 0.2 µM (%)
Expressed in %, but write only the number.

# example entries with known answers
- CC(C)/N=c1\cc2n(-c3ccc(Cl)cc3)c3ccccc3nc-2cc1Nc1ccc(Cl)cc1: 70
- CCN(CC)CCC/N=c1/cc2n(-c3ccc(Cl)cc3)c3ccccc3nc-2cc1Nc1ccc(Cl)cc1: 22
- Clc1ccc(Nc2cc3nc4ccccc4n(-c4ccc(Cl)cc4)c-3c/c2=N/CCCN2CCCC2)cc1: 26

Please examine the following record next.
Input line: Request: inhibition at 0.2 µM, test system Mycobacterium leprae, entry `CO[C@H]1/C=C/O[C@@]2(C)Oc3c(C)c(O)c4c(c3C2=O)C2=NC3(CCN(CC(C)C)CC3)NC2=C(NC(=O)/C(C)=C\C=C\[C@H](C)[C@H](O)[C@@H](C)[C@@H](O)[C@@H](C)[C@H](OC(C)=O)[C@@H]1C)C4=O`
Output line: 84
